Biological target: Focal adhesion kinase 1 (Homo sapiens, UniProt Q05397)
Sequence (Q05397 whole entry): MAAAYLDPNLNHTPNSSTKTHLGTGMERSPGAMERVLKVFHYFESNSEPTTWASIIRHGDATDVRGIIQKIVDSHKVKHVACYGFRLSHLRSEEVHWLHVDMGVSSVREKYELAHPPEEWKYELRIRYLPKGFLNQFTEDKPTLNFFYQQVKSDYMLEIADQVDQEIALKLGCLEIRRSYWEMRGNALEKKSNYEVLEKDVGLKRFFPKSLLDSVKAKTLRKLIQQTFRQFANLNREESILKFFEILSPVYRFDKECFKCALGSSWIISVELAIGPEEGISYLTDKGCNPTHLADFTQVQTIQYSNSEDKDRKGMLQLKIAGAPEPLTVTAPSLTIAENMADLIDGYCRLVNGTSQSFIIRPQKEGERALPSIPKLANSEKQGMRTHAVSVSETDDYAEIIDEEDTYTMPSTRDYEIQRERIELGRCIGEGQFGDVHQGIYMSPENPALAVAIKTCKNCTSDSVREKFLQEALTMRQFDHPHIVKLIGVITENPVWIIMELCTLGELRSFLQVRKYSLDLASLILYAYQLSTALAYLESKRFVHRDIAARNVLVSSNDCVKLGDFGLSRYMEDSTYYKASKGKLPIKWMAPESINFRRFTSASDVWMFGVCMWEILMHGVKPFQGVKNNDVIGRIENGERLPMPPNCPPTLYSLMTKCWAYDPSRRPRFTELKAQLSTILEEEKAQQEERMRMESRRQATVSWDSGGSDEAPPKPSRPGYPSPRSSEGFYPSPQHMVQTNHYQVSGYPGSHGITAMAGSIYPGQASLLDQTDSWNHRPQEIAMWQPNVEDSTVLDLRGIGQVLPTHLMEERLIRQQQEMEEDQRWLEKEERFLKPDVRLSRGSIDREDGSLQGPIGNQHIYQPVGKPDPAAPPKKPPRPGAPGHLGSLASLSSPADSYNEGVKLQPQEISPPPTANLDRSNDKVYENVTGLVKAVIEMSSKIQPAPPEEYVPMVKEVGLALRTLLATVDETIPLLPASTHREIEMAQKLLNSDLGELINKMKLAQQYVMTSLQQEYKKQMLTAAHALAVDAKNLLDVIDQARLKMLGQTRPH
Assay: Inhibition of recombinant FAK (unknown origin) by radiometric kinase assay
The following compounds are listed with their measured IC50 values.
// return the numeric value with its unit appended

See these solved cases before continuing.
CCN1CCN(c2ccc(Nc3ncc4scc(-c5ccccc5)c4n3)cc2)CC1    10 nM
CN(C)c1ccc(Nc2ncc3scc(-c4cccc(NS(C)(=O)=O)c4)c3n2)cc1    18 nM
CS(=O)(=O)Nc1cccc(-c2csc3cnc(N)nc23)c1    4030 nM
CS(=O)(=O)Nc1cccc(-c2csc3cnc(Nc4ccc(N5CCOCC5)cc4)nc23)c1    8 nM
CS(=O)(=O)Nc1cccc(-c2csc3cnc(Nc4ccccc4)nc23)c1    30 nM

Record COc1cc(Nc2ncc3scc(-c4ccccc4NS(C)(=O)=O)c3n2)cc(OC)c1OC / Focal adhesion kinase 1 (Homo sapiens, UniProt Q05397), IC50 recorded as 78 nM

Record COc1cc(Nc2ncc3scc(-c4cccc(NS(C)(=O)=O)c4)c3n2)cc(OC)c1OC / Focal adhesion kinase 1 (Homo sapiens, UniProt Q05397), IC50 recorded as 7 nM

Record COc1cc(Nc2ncc3scc(-c4cccc(S(C)(=O)=O)c4)c3n2)cc(OC)c1OC / Focal adhesion kinase 1 (Homo sapiens, UniProt Q05397), IC50 recorded as 91 nM

Data credit: ChEMBL document CHEMBL4837239
